molecular target: Metabotropic glutamate receptor 5 (Rattus norvegicus) (UniProt P31424); assay: Positive allosteric modulation of rat mGlu5 receptor expressed in HEK293 cells relative to glutamate; assay type: cell-based; design: concentration or dose not given beside the values
Listed here: items and their measured Activity.
Expressed in %, but write only the number.

{"MOLECULE": "CC1(C)CCn2nc(COc3ccccc3)cc2C1OCc1ccccc1 (stereo not drawn)", "Activity / %": 64}
{"MOLECULE": "O=C1CCCc2nc(COc3ccccc3)sc21", "Activity / %": 65}
{"MOLECULE": "c1ccc(NC2CCCn3nc(COc4ccccc4)cc32)cc1 (stereo not drawn)", "Activity / %": 62}
{"MOLECULE": "c1ccc(OCc2cc3n(n2)CCCC3NCc2ccncc2)cc1 (stereo not drawn)", "Activity / %": 68}
{"MOLECULE": "c1ccc(COC2CCCn3nc(COc4ccccc4)cc32)cc1 (stereo not drawn)", "Activity / %": 70}

For O=C1c2cc(COc3ccccc3)nn2CCC1(Cc1ccccc1)Cc1ccccc1 , what is its reported Activity?
37

* * *

target: Metabotropic glutamate receptor 5 (Rattus norvegicus); experiment: Positive allosteric modulation of rat mGlu5 receptor expressed in HEK293 cells
Sequence (P31424 whole entry): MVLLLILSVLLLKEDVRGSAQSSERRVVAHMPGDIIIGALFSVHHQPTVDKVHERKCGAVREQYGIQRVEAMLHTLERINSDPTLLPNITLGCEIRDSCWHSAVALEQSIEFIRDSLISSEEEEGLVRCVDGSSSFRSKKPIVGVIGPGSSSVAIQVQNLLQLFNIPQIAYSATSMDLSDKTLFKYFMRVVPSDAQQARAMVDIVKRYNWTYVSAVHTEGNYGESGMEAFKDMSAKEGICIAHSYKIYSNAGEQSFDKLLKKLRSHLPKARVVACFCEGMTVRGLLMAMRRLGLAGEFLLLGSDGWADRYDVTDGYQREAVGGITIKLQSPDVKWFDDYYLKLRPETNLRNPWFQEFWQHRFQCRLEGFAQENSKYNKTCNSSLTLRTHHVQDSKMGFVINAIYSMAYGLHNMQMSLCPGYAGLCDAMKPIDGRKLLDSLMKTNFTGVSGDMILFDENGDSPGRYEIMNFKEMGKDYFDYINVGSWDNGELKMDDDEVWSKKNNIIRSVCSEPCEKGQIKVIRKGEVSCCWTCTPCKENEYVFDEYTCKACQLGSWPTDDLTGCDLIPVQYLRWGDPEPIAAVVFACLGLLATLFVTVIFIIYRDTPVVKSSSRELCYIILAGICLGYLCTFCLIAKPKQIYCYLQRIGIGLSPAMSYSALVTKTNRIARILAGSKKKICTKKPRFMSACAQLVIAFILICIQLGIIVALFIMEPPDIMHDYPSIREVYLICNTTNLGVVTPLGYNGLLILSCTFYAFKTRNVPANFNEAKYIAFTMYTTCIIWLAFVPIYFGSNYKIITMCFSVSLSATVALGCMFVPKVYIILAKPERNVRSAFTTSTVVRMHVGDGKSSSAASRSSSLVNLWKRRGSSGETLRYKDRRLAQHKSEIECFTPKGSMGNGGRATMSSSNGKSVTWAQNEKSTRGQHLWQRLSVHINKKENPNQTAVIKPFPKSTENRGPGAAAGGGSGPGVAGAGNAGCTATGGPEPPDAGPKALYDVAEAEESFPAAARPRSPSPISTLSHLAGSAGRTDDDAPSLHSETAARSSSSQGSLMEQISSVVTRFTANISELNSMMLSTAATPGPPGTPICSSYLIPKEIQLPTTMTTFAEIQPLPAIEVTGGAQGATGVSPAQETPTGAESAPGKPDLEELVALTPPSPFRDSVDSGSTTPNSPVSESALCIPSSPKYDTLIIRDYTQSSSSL
pEC50: −log10 of the molar value.
# if value of pEC50 reaches 6, tag Fulfilled; if it stays below, tag Not fulfilled

Below are worked cases with known answers.
{"COMPOUND": "FC1(F)CCCn2nc(COc3ccccc3)cc21", "ASSAYED TARGET": "Metabotropic glutamate receptor 5 (Rattus norvegicus)", "LABEL VALUE": "Fulfilled"}
{"COMPOUND": "O=C1c2cc(COc3ccccc3)nn2CCC1Cc1ccccc1 (stereo not given)", "ASSAYED TARGET": "Metabotropic glutamate receptor 5 (Rattus norvegicus)", "LABEL VALUE": "Fulfilled"}
{"COMPOUND": "c1ccc(OCc2cc3n(n2)CCCC3NC2CC2)cc1 (stereo not given)", "ASSAYED TARGET": "Metabotropic glutamate receptor 5 (Rattus norvegicus)", "LABEL VALUE": "Not fulfilled"}
{"COMPOUND": "Fc1cccc(CNC2CCCn3nc(COc4ccccc4)cc32)c1 (stereo not given)", "ASSAYED TARGET": "Metabotropic glutamate receptor 5 (Rattus norvegicus)", "LABEL VALUE": "Fulfilled"}
{"COMPOUND": "CC1(C)CCn2nc(COc3ccccc3)cc2C1OCc1ccccc1 (stereo not given)", "ASSAYED TARGET": "Metabotropic glutamate receptor 5 (Rattus norvegicus)", "LABEL VALUE": "Not fulfilled"}

Given the entry c1ccc(OCc2cc3n(n2)CCCC3NCc2ccncc2)cc1 (stereo not given) , answer whether its pEC50 meets or surpasses 6.
Not fulfilled

State whether the measured pEC50 reaches 6, counting equality as reaching it, for CC1(C)CCn2nc(OCc3ccccc3)cc2C1=O
Fulfilled

* * *

target: Metabotropic glutamate receptor 5 (Rattus norvegicus) (UniProt P31424); experiment: Positive allosteric modulation of rat mGlu5 receptor expressed in HEK293 cells relative to glutamate; format: cell-based; design: concentration or dose not given beside the values
# Activity values compiled below
Kindly answer with a numeric value in %, unit omitted.

Guide cases for Activity, answers given:
{"MOLECULE": "CC(C)N1CCN(C2CCCn3nc(COc4ccccc4)cc32)CC1 (configuration not stated)", "Activity (%)": 71}
{"MOLECULE": "CC1(C)CCn2nc(COc3ccccc3)cc2C1NCc1ccccc1 (configuration not stated)", "Activity (%)": 65}
{"MOLECULE": "c1ccc(OCc2cc3n(n2)CCCC3N2CCOCC2)cc1 (configuration not stated)", "Activity (%)": 52}
{"MOLECULE": "c1ccc(OCc2cc3n(n2)CCCC3OCC2CC2)cc1 (configuration not stated)", "Activity (%)": 43}
{"MOLECULE": "c1ccc(CNC2CCCn3nc(OCc4ccccc4)cc32)cc1 (configuration not stated)", "Activity (%)": 48}

Please provide the recorded Activity for OC1(c2ccccc2)CCCn2nc(COc3ccccc3)cc21 (configuration not stated) , tested on Metabotropic glutamate receptor 5 (Rattus norvegicus) (UniProt P31424).
49

What is its Activity for Metabotropic glutamate receptor 5 (Rattus norvegicus) (UniProt P31424)? Entry: OC1CCCn2nc(COc3ccccc3)cc21 (configuration not stated)
47

GET /values?readout=Activity&system=Metabotropic glutamate receptor 5 (Rattus norvegicus) (UniProt P31424)&item= O=C1c2cc(COc3ccccc3)nn2CCC1c1ccc(F)cc1 (configuration not stated)
66

Query Activity on Metabotropic glutamate receptor 5 (Rattus norvegicus) (UniProt P31424) for COC1c2cc(COc3ccccc3)nn2CCC1(C)C (configuration not stated)
75

Metabotropic glutamate receptor 5 (Rattus norvegicus) (UniProt P31424) / Activity / FC1(F)CCCn2nc(COc3ccccc3)cc21 : value?
52

Param readout = Activity; param system = Metabotropic glutamate receptor 5 (Rattus norvegicus) (UniProt P31424); param query = COc1ccccc1C1(C)CCn2nc(COc3ccccc3)cc2C1=O (configuration not stated) ; response: value
52

Observed Activity on Metabotropic glutamate receptor 5 (Rattus norvegicus) (UniProt P31424) for CC1(C)CCn2nc(COc3ccccc3)cc2C1O (configuration not stated) , please.
60

Hi! What's the reported Activity for CC1(C)CCn2nc(COc3ccccc3)cc2C1=O on Metabotropic glutamate receptor 5 (Rattus norvegicus) (UniProt P31424)?
70

Lookup: Activity / Metabotropic glutamate receptor 5 (Rattus norvegicus) (UniProt P31424) / OC1(C(F)(F)F)CCCn2nc(COc3ccccc3)cc21 (configuration not stated)
54
